# assay-name: Bioavailability (BA) test
# Type: in vivo
# assay-setup: plasma; mice or SD rats, oral vs intravenous AUC
measurement-kind: bioavailability (%)
Answer with a number only, understood to be in %.

Illustrative cases are given below, each with its answer.
> print(dat)
                              line.notation  unit.of.measure  result.value
1  C[C@@H](Cn1c(=O)[nH]/c(=N\c2ccc(OCC3CC3)cc2)n(Cc2ccc(Cl)cc2)c1=O)C(=O)O                %            46
2  CCn1c(=O)[nH]/c(=N\c2ccc(Oc3ccnc(C(=O)O)c3)cc2)n(Cc2ccc(Cl)cc2)c1=O                %            31

Please look at the following molecule next.
Reported bioavailability for O=c1[nH]/c(=N\c2ccc(Oc3ccon3)cc2)n(Cc2ccc(Cl)cc2)c(=O)n1CC(CO)CO : what is it?
83

====

The entries below are paired with their reported IC50.
# system-under-test: UniProt:P56373
# assay-name: Evaluation of human P2X3 receptor inhibitory activity (Fluo-3 calcium fluorescence, FDSS 3000, ATP stimulation)
# Format: cell-based
# assay-setup: C6BU-1 cells stably expressing human P2X3 receptor
Answer by giving the amount and then stating its unit.

Illustrative cases are given below, each with its answer.
> print(dat)
                                   compound  measurement.kind  result.value
1  Cc1nc2ccc(/N=c3\[nH]c(=O)n([C@@H](C)[C@@H](C)C(=O)O)c(=O)n3Cc3ccc(Cl)cc3)cc2s1 [Compound I-1469]              IC50      0.009 µM
2  CCOC(=O)CCn1c(=O)[nH]/c(=N\c2ccc(Oc3ccnc(O)c3)cc2)n(Cc2ccc(Cl)cc2)c1=O [Compound I-1434]              IC50      0.002 µM

Item CC(C)Oc1ccc(/N=c2\[nH]c(=O)n(CC(=O)OCC3CCOCC3)c(=O)n2Cc2ccc(Cl)cc2)cc1Cl [Compound I-0667] with UniProt:P56373 - IC50?
0.02 µM

Item CCCc1ccc(/N=c2\[nH]c(=O)n(CCC(=O)OCC)c(=O)n2Cc2ccc(C)cc2)cc1C [Compound I-1215] with UniProt:P56373 - IC50?
0.027 µM

====

The entries below are paired with their reported IC50.
# system-under-test: human P2X3 receptor (Homo sapiens (Human), UniProt P56373)
# Sequence (P56373 whole entry): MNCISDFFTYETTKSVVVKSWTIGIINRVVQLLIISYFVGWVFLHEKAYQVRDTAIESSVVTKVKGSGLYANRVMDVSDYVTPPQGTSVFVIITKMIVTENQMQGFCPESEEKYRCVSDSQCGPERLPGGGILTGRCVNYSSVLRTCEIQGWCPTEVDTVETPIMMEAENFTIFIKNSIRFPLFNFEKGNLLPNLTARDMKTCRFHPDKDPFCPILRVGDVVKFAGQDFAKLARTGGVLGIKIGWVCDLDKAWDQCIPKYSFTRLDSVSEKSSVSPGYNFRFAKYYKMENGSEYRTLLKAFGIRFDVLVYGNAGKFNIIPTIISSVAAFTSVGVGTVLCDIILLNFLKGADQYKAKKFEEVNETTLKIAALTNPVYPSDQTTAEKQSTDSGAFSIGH
# assay-name: Evaluation of human P2X3 receptor inhibitory activity (Fluo-3 calcium fluorescence, FDSS 3000, ATP stimulation)
# Format: cell-based
# assay-setup: C6BU-1 cells stably expressing human P2X3 receptor, Fluo-3 fluorescence, FDSS 3000
Answer with a number only, understood to be in nM.

Illustrative cases are given below, each with its answer.
> print(dat)
                                   molecule                         system.under.test  measurement.kind  result.value
1  Cc1cc(/N=c2\[nH]c(=O)n(C3CNC3)c(=O)n2Cc2ccc(Cl)cc2)ccc1OC(C)C [Compound I-1709]  human P2X3 receptor (Homo sapiens (Human), UniProt P56373)              IC50           167
2  CCc1nc2ccc(/N=c3\[nH]c(=O)n(CCCO)c(=O)n3Cc3ccc(Cl)cc3)cc2s1 [Compound I-1622]  human P2X3 receptor (Homo sapiens (Human), UniProt P56373)              IC50             4
3  CCc1ccc(Cn2c(=O)n(C[C@H](C)C(=O)O)c(=O)[nH]/c2=N\c2ccc(OC(C)C)c(C)c2)cc1 [Compound I-0898]  human P2X3 receptor (Homo sapiens (Human), UniProt P56373)              IC50            20
4  Cc1ccc(Cn2c(=O)n(C[C@H](C)C(=O)O)c(=O)[nH]/c2=N\c2cccc(C3=CCCC3)c2)cc1 [Compound I-1115]  human P2X3 receptor (Homo sapiens (Human), UniProt P56373)              IC50           516
5  Cc1ccc(Cn2c(=O)n(C[C@H](C)C(=O)O)c(=O)[nH]/c2=N\c2ccc(OC(C)C)c(C#N)c2)cc1 [Compound I-0961]  human P2X3 receptor (Homo sapiens (Human), UniProt P56373)              IC50            74
6  Cc1nc2ccc(/N=c3\[nH]c(=O)n(CCC(CO)CO)c(=O)n3Cc3ccc(Cl)cc3)cc2s1 [Compound I-1853]  human P2X3 receptor (Homo sapiens (Human), UniProt P56373)              IC50             4

Item COC(=O)[C@@H](C)Cn1c(=O)[nH]/c(=N\c2ccc(Cl)c(C(F)(F)F)c2)n(Cc2ccc(C)cc2)c1=O [Compound I-1000] with human P2X3 receptor (Homo sapiens (Human), UniProt P56373) - IC50?
116

====

The entries below are paired with their reported pIC50.
# system-under-test: human P2X3 receptor (Homo sapiens (Human), UniProt P56373)
# assay-name: Evaluation of human P2X3 receptor inhibitory activity (Fluo-3 calcium fluorescence, FDSS 3000, ATP stimulation)
# Format: cell-based
# assay-setup: C6BU-1 cells stably expressing human P2X3 receptor
// scale note: pIC50 = -log10(conc_M); give the bare number

Reported pIC50 for CC(C)COc1ccc(/N=c2\[nH]c(=O)n([C@@H](C)[C@@H](C)C(=O)O)c(=O)n2Cc2ccc(Cl)cc2)cc1 : what is it?
7.55

Reported pIC50 for CC(C)Oc1ccc(/N=c2\[nH]c(=O)n([C@H](C)[C@H](C)C(=O)O)c(=O)n2Cc2ccc(Cl)cc2)cc1Cl : what is it?
8.00

Reported pIC50 for CCOC(=O)c1coc(Oc2ccc(/N=c3\[nH]c(=O)n(CC)c(=O)n3Cc3ccc(Cl)cc3)cc2)n1 : what is it?
8.05

Reported pIC50 for Cc1nc2ccc(/N=c3\[nH]c(=O)n(CCCC(=O)O)c(=O)n3Cc3ccc(Cl)cc3)cc2s1 : what is it?
7.64

Reported pIC50 for CCCn1c(=O)[nH]/c(=N\c2ccc(Oc3ccnc(C(=O)O)c3)cc2)n(Cc2ccc(Cl)cc2)c1=O : what is it?
8.22

Reported pIC50 for CCOC(=O)CCn1c(=O)[nH]/c(=N\c2ccc(OC(C)C)c(COC(C)=O)c2)n(Cc2ccc(C)cc2)c1=O : what is it?
7.30

Reported pIC50 for Cc1cc2cc(/N=c3\[nH]c(=O)n(C[C@H](C)C(=O)O)c(=O)n3Cc3ccc(Cl)cc3)ccc2[nH]1 : what is it?
7.24

====

# system-under-test: human P2X3 receptor (Homo sapiens (Human), UniProt P56373)
# assay-name: Evaluation of human P2X3 receptor inhibitory activity (Fluo-3 calcium fluorescence, FDSS 3000, ATP stimulation)
# Format: cell-based
# assay-setup: human P2X3 receptor, Test Example 1
measurement-kind: IC50 (nM)
Answer with a number only, understood to be in nM.

Illustrative cases are given below, each with its answer.
> print(dat)
                                   compound  result.value
1  O=c1[nH]/c(=N\c2ccc(Oc3cccnn3)cc2)n(Cc2ccc(Cl)cc2)c(=O)n1CC(CO)CO [Compound I-2692]             8
2  Cc1ccc(Cn2c(=O)n(C[C@H](C)C(=O)O)c(=O)[nH]/c2=N\c2ccc(OCC3CC3)cc2)cc1 [Compound I-0838]            33
3  CCn1c(=O)[nH]/c(=N\c2ccc(Oc3cccnn3)cc2)n(Cc2ccc(Cl)cc2)c1=O [Compound I-2611]            14
4  CCc1cc2cc(/N=c3\[nH]c(=O)n(CCCO)c(=O)n3Cc3ccc(Cl)cc3)ccc2o1 [Compound I-2336]            10
5  CCc1ccc(Cn2c(=O)n(C[C@H](C)C(=O)OC)c(=O)[nH]/c2=N\c2ccc(OC(C)C)c(C)c2)cc1 [Compound I-0894]            28
6  CCn1c(=O)[nH]/c(=N\c2ccc(Oc3ccsn3)cc2)n(Cc2ccc(Cl)cc2)c1=O [Compound I-2286]             5

Please look at the following compound next.
Reported IC50 for CCOC(=O)CNc1cc(Oc2ccc(/N=c3\[nH]c(=O)n(CC)c(=O)n3Cc3ccc(Cl)cc3)cc2)ccn1 [Compound I-2549] : what is it?
12

====

The entries below are paired with their reported pIC50.
# system-under-test: human P2X3 receptor (Homo sapiens (Human), UniProt P56373)
# assay-name: Evaluation of human P2X3 receptor inhibitory activity (Fluo-3 calcium fluorescence, FDSS 3000, ATP stimulation);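 further: stimulus was 50 nM ATP with fluorescence followed for 3 min, and the response per well was peak post-ATP fluorescence divided by the reading at measurement start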
# Type: cell-based
# assay-setup: human P2X3 receptor, Test Example 1
// scale note: pIC50 = -log10(conc_M); give the bare number

> print(dat)
                              line.notation  measurement.kind  result.value
1  O=C(O)CCn1c(=O)[nH]/c(=N\c2ccc(Oc3cccc(F)n3)cc2)n(Cc2ccc(Cl)cc2)c1=O             pIC50          8.05
2  Cc1ccc(Cn2c(=O)n(C)c(=O)[nH]/c2=N\c2ccc(Oc3ccc(C(=O)O)cn3)cc2)cc1             pIC50          7.74
3  Cn1c(=O)[nH]/c(=N\c2ccc(Oc3nccc(C(=O)O)n3)cc2)n(Cc2ccc(Cl)cc2)c1=O             pIC50          7.21

Please look at the following compound next.
Reported pIC50 for Cc1ccc(Cn2c(=O)n(C)c(=O)[nH]/c2=N\c2ccc(Oc3cccc(C(=O)O)n3)cc2)cc1 : what is it?
8.22
